Test system: HOP-62 NSCLC
Experiment: NCI tumour cell line growth inhibition, 48 h
Measure: TGI

Challenge: Write down the reported TGI of Fc1ccc2c(c1)nc1n2C(c2c(F)cccc2F)SC1 (stereo unspecified) , test system: HOP-62 NSCLC.
Response given: > 100 µM

Challenge: Lab request: please report TGI under test system HOP-62 NSCLC for Cc1c(C2CCSc3ccccc3N2)sc2ccccc12 (stereo unspecified)
Response given: > 100 µM

Challenge: // fetch HOP-62 NSCLC TGI for CCc1n[nH]c(=O)[nH]1
Response given: > 100 µM

Challenge: Test system HOP-62 NSCLC; read-out TGI; what value for CCC(C)N1CN(c2ccccc2)C2(CCN(CCCC3(c4ccc(F)cc4)OCCO3)CC2)C1=O (stereo unspecified) ?
Response given: 27.6 µM

Challenge: Tell me reported TGI for COC(=O)C(CNC(=O)/C=C/c1ccc(OC(C)=O)c(OC(C)=O)c1)NC(=O)/C=C/c1ccc(OC(C)=O)c(OC(C)=O)c1 (stereo unspecified) , tested with HOP-62 NSCLC.
Response given: > 100 µM

Challenge: Form: Entry = CC(C)=CCC[C@@H](C)C1=C(O)C(Nc2ccccc2)=C(C)C(=O)C1=O | System = HOP-62 NSCLC | TGI = ____
Response given: > 55.2 µM

Challenge: API: value(readout= TGI, system= HOP-62 NSCLC, query= O=C(O)C1CSC2(CCCN(Cc3ccccc3)C2)N1 (stereo unspecified) )
Response given: > 100 µM

Challenge: Query for HOP-62 NSCLC: what TGI does the record show for O=C(CCc1cc(-c2ccc(F)cc2)n[nH]1)N(Cc1ccccc1)Cc1ccccc1 ?
Response given: > 100 µM

Challenge: Tell me reported TGI for C[C@H]1CC[C@@H]2[C@@H](C)[C@H]3[C@H](C[C@H]4[C@@H]5CC=C6C[C@@H](O)CC[C@]6(C)[C@H]5CC[C@]34C)N2C1 , tested with HOP-62 NSCLC.
Response given: > 100 µM

Challenge: Request - read-out TGI | tested on HOP-62 NSCLC | compound O=[N+]([O-])c1ccc(Nc2cccc3c2[nH]c2c(-c4ccccc4)nccc23)c([N+](=O)[O-])c1
Response given: > 100 µM

Challenge: Param readout = TGI; param system = HOP-62 NSCLC; param query = O=C(NNc1nc(-c2ccccc2)cs1)Nc1ccccc1 ; response: value
Response given: 56.8 µM

Challenge: HOP-62 NSCLC / TGI / CCN(CCC#N)C(=O)Nc1ccccc1 : value?
Response given: > 100 µM

Challenge: Give TGI (HOP-62 NSCLC) of the following compound: COC(=O)[C@@H](C)C[C@H](Cc1ccccc1)NC(=O)c1csc([C@@H](C[C@H](C(C)C)N(C)C(=O)[C@@H](NC(=O)[C@H]2CCCCN2C)C(C(F)(F)F)C(F)(F)F)OC(C)=O)n1
Response given: > 16.7 µM

Challenge: Checklist item: TGI tested on HOP-62 NSCLC, entry NS(=O)(=O)c1ccc(NCc2nc3ccccc3[nH]2)cc1 , value?
Response given: > 100 µM

Challenge: TGI of CC(=O)/C(=C/N1CCN(C(=O)c2ccco2)C1=S)C(=O)c1ccccc1 on HOP-62 NSCLC?
Response given: 27.7 µM

Challenge: Please tell me: TGI of CCOC(=O)C(=O)Nc1nc2ccc(C)cc2s1 , system HOP-62 NSCLC?
Response given: > 100 µM

Challenge: For HOP-62 NSCLC, provide TGI of NC(=O)c1nc(-c2ccc(Cl)c(Cl)c2)nc2ccccc12 please.
Response given: > 100 µM

Challenge: Please state recorded TGI (tested on HOP-62 NSCLC) of OCC(S)CS.[Bi] (stereo unspecified)
Response given: 50.9 µM

Challenge: API: value(readout= TGI, system= HOP-62 NSCLC, query= O=C1c2cc3ncsc3cc2C(=O)c2c(O)ccc(O)c21 )
Response given: > 100 µM

Challenge: So what TGI did Cc1c2ccccc2c(C)n2c1nc1cc(Cl)c(Cl)cc12 get with HOP-62 NSCLC?
Response given: > 100 µM

Challenge: What measured TGI is associated with COc1ccc2c(c1)[nH]c1c3ccc(OC)cc3oc(=O)c21 on HOP-62 NSCLC?
Response given: > 100 µM

----------
Tested on: SW-620 colon
Experiment: NCI tumour cell line growth inhibition, 48 h
Task for the reader: assign each of the following compounds its reported TGI.

Challenge: For COC(=O)C(CNC(=O)/C=C/c1ccc(OC(C)=O)c(OC(C)=O)c1)NC(=O)/C=C/c1ccc(OC(C)=O)c(OC(C)=O)c1 (centres undefined) , what is its reported TGI?
Response given: > 100 µM

Challenge: State the recorded TGI for this entry: O=c1onc(Nc2ccccc2)n1-c1ccccc1
Response given: > 100 µM

Challenge: Find the recorded TGI belonging to COC(=O)C(=O)C(C#N)c1c(Cl)cccc1Cl (centres undefined) and report it.
Response given: > 100 µM

Challenge: Request the reported TGI associated with C=Cc1cc(OC)c2c(c1)c(=O)oc1c2cc(OC)c2c(O)ccc(C3OC(C(C)O)C(O)C3O)c21 (centres undefined)
Response given: 0.084 µM

----------
Test system: SNB-19 CNS
Assay: NCI tumour cell line growth inhibition, 48 h
Measure: TGI

Challenge: Value lookup for TGI; key = CNC(=O)C1OC(n2cnc3c(NCc4cccc(I)c4)nc(Cl)nc32)C(O)C1O (centres undefined)
Response given: 24.9 µM

Challenge: Sample O=[N+]([O-])c1ccc2nc(-c3ccc(Cl)cc3)[nH]c2c1 — what was its TGI?
Response given: 80.1 µM

Challenge: Which TGI is listed for CCOC(=O)C1CCCN1C(=O)c1ccccc1Cl (centres undefined) ?
Response given: > 100 µM

Challenge: Item under review: CCOc1ccccc1N=Cc1c2ccccc2cc2ccccc12 . Reported TGI?
Response given: > 88.4 µM

Challenge: Given CC1CN=C(c2ccc(CN3CCC(CCCC4CCN(Cc5ccc(C6=NCC(C)N6)cc5)CC4)CC3)cc2)N1 (centres undefined) , state its recorded TGI.
Response given: 71.5 µM

Challenge: Value lookup for TGI; key = CC(C)=C=CP(=O)(O)c1ccccc1
Response given: > 100 µM

Challenge: Using the record for CC1OC(=O)N2CCC=CC12 (centres undefined) , report its TGI.
Response given: > 100 µM

Challenge: TGI for CCCC(=O)OC(OC(=O)CCC)c1ccc([N+](=O)[O-])o1 ?
Response given: > 100 µM

Challenge: // TGI lookup, key: O=S(=O)(O)c1cc(N=[N+]([O-])c2ccc(N=Nc3ccccc3)cc2S(=O)(=O)O)ccc1/C=C/c1ccc(N=[N+]([O-])c2ccc(N=Nc3ccccc3)cc2S(=O)(=O)O)cc1S(=O)(=O)O
Response given: > 100 µM

----------
Tested on: MALME-3M melanoma
Assay: NCI tumour cell line growth inhibition, 48 h
Measure: TGI

Challenge: Consider the compound CCN(CCC#N)C(=O)Nc1ccccc1 and give its measured TGI.
Response given: > 100 µM

Challenge: Which measured TGI value corresponds to c1ccc(-c2cc3n4c(-c5ccccc5)nn(-c5ccccc5)c4cnc-3n2)cc1 ?
Response given: > 50 µM

Challenge: Please look up its TGI: COC(=O)[C@@H](C)C[C@H](Cc1ccccc1)NC(=O)c1csc([C@@H](C[C@H](C(C)C)N(C)C(=O)[C@@H](NC(=O)[C@H]2CCCCN2C)C(C(F)(F)F)C(F)(F)F)OC(C)=O)n1
Response given: > 16.7 µM

Challenge: Reported TGI, compound OC(CCl)CN1CC[N+]2(CC1)CC[N+]1(CCN(CC(O)CCl)CC1)CC2 (stereo not given) : ____
Response given: > 50 µM

Challenge: Entry COC1CC(n2cc(F)c(N)nc2=O)OC1CO (stereo not given) : reported TGI = ?
Response given: > 100 µM

Challenge: Tell me the measured TGI of CC(C)=CCC[C@@H](C)C1=C(O)C(Nc2ccccc2)=C(C)C(=O)C1=O , please.
Response given: > 75 µM

Challenge: I am curious: what TGI value has been reported for Nc1ccc(C(=O)O)cc1 ?
Response given: > 100 µM

Challenge: What value of TGI has been recorded for this entry: Cn1cccc1-c1cc(-c2ccccc2)nc(N)c1C#N
Response given: > 100 µM

Challenge: I am curious: what TGI value has been reported for Cc1cc(OCC(O)CO)ccc1Cl (stereo not given) ?
Response given: > 100 µM

Challenge: Any idea what its TGI is? The compound is Cn1c(-c2c(C3=CC(=O)N(c4ccccc4)C3=O)c3ccccc3n2C)cc2ccccc21
Response given: > 100 µM

----------
System: LXFL 529 NSCLC
Assay: NCI tumour cell line growth inhibition, 48 h
Answer each item with its documented TGI.
// note: answer is a bare numeric in µM

Challenge: TGI lookup needed for C[C@H]1CCC2C(OC(=O)[C@@H]2CN(C)C)[C@]2(C)C(=O)C=CC12O (some centres not stated) , thanks.
Response given: 12.4

Challenge: I have this compound here, COC(=O)C(/C(=N\O)C(=O)Nc1ccc(Br)cc1)c1nc2ccccc2[nH]c1=O (configuration not stated) , and I need its recorded TGI.
Response given: 80.5

Challenge: Requested field: TGI. Item: COc1ccc(/C=C2/CSC/C(=C/c3ccc(OC)c(OC)c3)C2=O)cc1OC
Response given: 10.8

Challenge: Quick one: TGI of CC/C(C)=C1\CCC(CN(C)C)C1=O (configuration not stated) ?
Response given: 29.9

Challenge: For the compound shown here, COC(=O)Nc1nc2ccc(C(=O)c3cccs3)cc2[nH]1 , give the reported TGI.
Response given: 18.6

Challenge: I have this compound here, CCN1CCC(O)(/C=C/c2ccccc2)C(C(=O)/C=C/c2ccccc2)C1 (configuration not stated) , and I need its recorded TGI.
Response given: 3.56
